Origin of values: the supplement of paper PMC9170038

System: MS2 coat protein
Assay: apparent KD of MS2 coat protein; higher = weaker reporter binding
Details: Eterna round: R107; input ligand: theophylline 2 mM
experimental.readout: apparent KD of MS2 coat protein (nM)
Please reply with the bare figure in nM and do not write the unit itself.

get_value(item= AGUCUUAAUGGAAGGAGCGCAGUCAUAACAUGAGGAUCACCCAUGUCGAUGUGAGGGUCAUUGCAGGUAGGUCGCCAUACUAAGA [Same State - Arginine B (Freestyle 4)] , readout=apparent KD of MS2 coat protein) returns 25.3

Record UAUAUAUAAACAUGAGGAUCACCCAUGUAACGAGGACCGGUACGGCCGCCACUCGGCCGGCAAGGGAGAGGACGGGAAACCGUCG [ETA NP+V+V2 #27] , field apparent KD of MS2 coat protein: 15.9

Per the record, CCAUAAGUACCGGUCCUCAGAUCCUCAUGACGAGGACCGGUACGGCCGCCACUCGAAACAUGAGGAUCACCCAUGUAAUAAUAUU [Brourdmod14] has apparent KD of MS2 coat protein of 31.1

The sequence listed as GUAGGUCACCUCAUGAGACCUACCCUGGAAGGAGCGAGCGAAAGCUCAGGUAGGUCGCCAGAAACAUGAGGAUCACCCAUGUAAU [(A)''-(M)'-(A)'-(Arg1)-(Arg2)-(M1)-(M2)_Design3] has a reported apparent KD of MS2 coat protein of 190

Per the record, UGUCGGCGAAAGUUGGCGUGUCUUGCUGGUCGAGGACCGGUACGGCCGCCACUCGAUCCUUCGCACAUGAGGAUCACCCAUGUUG [SS Tryp A #24] has apparent KD of MS2 coat protein of 34.8

According to the records, this sequence AGCAACAAGUCGGCCGCCACUCUUUUAACAUGAGGAUCACCCAUGUUUAUAUCAUGGUUUUAAUAGAGGACCGGGACAGUUGCAU [JR_ExcTryptoB_Sub005] displays apparent KD of MS2 coat protein of 43.2

###

For each entry below, report its apparent KD of MS2 coat protein value.
System: MS2 coat protein
Assay: apparent KD of MS2 coat protein; designed switch direction (-1 OFF switch, 1 ON switch): 1; higher = weaker reporter binding
Conditions: input ligand: none
Response body: numeric value in nM, unit text excluded.

Sample GUGGUCAGACAUGAGGAUCACCCAUGUGGAAUAAAUAAGGAAGAGGAUAUCGAAUAUAGGAUAUACGAGAAGGUUUGGUUGGUG (Eterna round: R96, puzzle: Same State NG 3) ; apparent KD of MS2 coat protein observed: 94.6

For reference, reported apparent KD of MS2 coat protein for GGUGCGAAUAAAGCCUACAUGAGGAUCACCCAUGUAUGUAGGCAGGAUAUCGUAUGCAAAGCAUACGAGAAGGGCUGUCGCACC [Mat - Same State NG 3 - JL Mod - D47] (Eterna round: R96, puzzle: Same State NG 3) stands at 85.8

// apparent KD of MS2 coat protein value for CAGCGCUGUCGAGAGGAUAUGCGGUGAUGGACAUGAGGAUCACCCAUGUUAGCGACAGCAUUACGGUAGAAGGCUUCACAGCUGC [Soteed Omei mod 15] (Eterna round: R96, puzzle: Same State 2) : 55.7

###

System: MS2 coat protein
Experiment: apparent KD of MS2 coat protein; higher = weaker reporter binding
Details: Eterna round: R107; input ligand: theophylline 2 mM
Kind request: treat 80 nM as inclusive, so apparent KD of MS2 coat protein at 80 nM or higher is criterion met, anything lower is criterion not met.

Lookup: Kindly determine if apparent KD of MS2 coat protein recorded for AAUGUAUGGCACAUGAGGAUCACCCAUGUGCGAGGACCGGUACGGCCGCCACUCGGUCCUGGGUUCUUAUUACUAUACAUUAAUG [XTryp A #15] is above or exactly 80 nM.
Found: criterion not met

Lookup: API: above_or_equal(metric=apparent KD of MS2 coat protein, cutoff=80 nM) for item GCUAGUGGCAGAAGGAGCGACAUUUAUAGUGGUCGAUACAUGAGGAUCACCCAUGUACUAUGUCAGGUAGGUCGCUGCCACUAGC [EAB NP+V+V2 #5]
Found: criterion not met

Lookup: API: above_or_equal(metric=apparent KD of MS2 coat protein, cutoff=80 nM) for item GGAUAGGACACGGCCGCCACUGCGCUAGGAUACUAGAACAUUUCCUCACAUGAGGAUCACCCAUGUAGGACCGGGUGUCCUAUCG
Found: criterion not met

Lookup: hey, is apparent KD of MS2 coat protein for this one >= 80 nM? ACCUGUACGAAAAGUGCAGGACACGGAAUACGAGGACCGGUACGGCCGCCACUCGGAACCUGAGGAUCACCCUGGUAAAACCGUG [TrypAS 13 #AlternativeMS2 #Zipper #StaticStem]
Found: criterion not met

Lookup: Given AACAUGAGGAUCACCCAUGUGUCCUCGAAACGAGGACCGGUACGGCCGCCACUCGAGCUAUGUUGACGAAAAGUCAGCAUAGCAA [Mat - Exclusion - Trytophan A - D13] , state whether its apparent KD of MS2 coat protein is at least 80 nM.
Found: criterion met

Lookup: Textbook exercise: given the entry CCUCCUUGUACGGCCGCCACUGCAUCUCUGGAUACUCCGAUAAUACAUGAGGAUCACCCAUGUUACAGGACCGGGUAUAUAUUAC [theeternabot_sameState_MS2_Trp_B_19] , state whether its apparent KD of MS2 coat protein is greater than or equal to 80 nM.
Found: criterion not met

Lookup: Exam item: decide whether the reported apparent KD of MS2 coat protein for UGUAUGGACUGAAGGAGCGACUCAAAAUAACAUGAGGAUCACCCAUGUAAGGCGAAAGCCGGUCAGGUAGGUCGCAGUCCAUACU [ArgBX 3] is at least 80 nM.
Found: criterion not met

Lookup: Hello, I need to know if ACAUGAGGAUCACCCAUGUCAGGGCACGAUACCAGCUGAUCCGGUGGCCCUUGGCAGCGUGACGUUUGGUCCCGCGGAUCACACG [xxmullin] has measured apparent KD of MS2 coat protein not below 80 nM. Thanks!
Found: criterion met

Lookup: Is apparent KD of MS2 coat protein at least 80 nM? Consider CGUAUUACGAAAGUAGUACGUAGUUCGAGUCGAGGACCGGUACGGCCGCCACUCGGACAUGAGGAUCACCCAUGUAGCGAAAGCU [Tryptophan A 23]
Found: criterion met

Lookup: Could you verify whether the entry AAUGGCCGUACCGGAAGGGUGAUCCUCAAACGAGGACCGGUACGGCCGCCACUCGAUAACAUGAGGAUCACCCAUGUAAUAAUAA [|T'-M'-Trp-Ms2|_Design13] shows apparent KD of MS2 coat protein of no less than 80 nM?
Found: criterion met

Lookup: I'd appreciate it if you could say whether AUAUAUACAUGAGGAUCACCCAUGUUAUUACGAGGACCGGUACGGCCGCCACUCGAUAGAGUAGAAGUAAAUUGUAAUUCAUGUU [JR_ExcTryptoA_Sub016] has apparent KD of MS2 coat protein at least equal to 80 nM.
Found: criterion not met

Lookup: For this sequence, is measured apparent KD of MS2 coat protein 80 nM or higher? GCGAUGGAGCGAAGGAGCGUGCUGGUACAUGAGGAUCACCCAUGUGAGUCGCAUCGCUAAGCACAGGUAGGUCGCGCUCCAUCGC [EAB NP+V+V2 #10]
Found: criterion met

###

Could you please report measured apparent KD of MS2 coat protein for the items listed next?
Tested on: MS2 coat protein
Assay: apparent KD of MS2 coat protein; designed switch direction (-1 OFF switch, 1 ON switch): -1; higher = weaker reporter binding
Details: input ligand: none
// return numeric value only (unit: µM, not printed)

In plain terms, GGAGGACGAGCAGGAUAUUUUUACAUGAGGAUCACCCAUGUGUAAUCAGGGUAAUCCUCCGCCGAAAAGAAGGGUUCGGAAGAA [Mat - Exclusion NG 2 - Mod of JL - D83] (Eterna round: R96, puzzle: Exclusion NG 2) has a documented apparent KD of MS2 coat protein of 0.0676

GET /value?item= GCUUGUGCCCUAGGAUAUCGCCCAGCCAAUGGAUGAGAAGGAGGCGGGUGAAACAUGAGGAUCACCCAUGUAAACGCACAGGCG [Erdiusbi] (Eterna round: R96, puzzle: Exclusion NG 1) &field=apparent KD of MS2 coat protein returns 0.0219

Per the records, this sequence ( AUAUUGUGAGGAUAUGAACUUAGUUUCGAAAGAUACUAAGUUCAGAAGGCACAUGAGGAUCACCCAUGUUUCUC [Long static hairpin v21] (Eterna round: R97, puzzle: Exclusion 4) ) has apparent KD of MS2 coat protein equal to 0.0798
